Values compiled from paper PMC9610298.

Molecular target: purified human BChE (Homo sapiens, UniProt P06276)
Sequence (P06276 29-602): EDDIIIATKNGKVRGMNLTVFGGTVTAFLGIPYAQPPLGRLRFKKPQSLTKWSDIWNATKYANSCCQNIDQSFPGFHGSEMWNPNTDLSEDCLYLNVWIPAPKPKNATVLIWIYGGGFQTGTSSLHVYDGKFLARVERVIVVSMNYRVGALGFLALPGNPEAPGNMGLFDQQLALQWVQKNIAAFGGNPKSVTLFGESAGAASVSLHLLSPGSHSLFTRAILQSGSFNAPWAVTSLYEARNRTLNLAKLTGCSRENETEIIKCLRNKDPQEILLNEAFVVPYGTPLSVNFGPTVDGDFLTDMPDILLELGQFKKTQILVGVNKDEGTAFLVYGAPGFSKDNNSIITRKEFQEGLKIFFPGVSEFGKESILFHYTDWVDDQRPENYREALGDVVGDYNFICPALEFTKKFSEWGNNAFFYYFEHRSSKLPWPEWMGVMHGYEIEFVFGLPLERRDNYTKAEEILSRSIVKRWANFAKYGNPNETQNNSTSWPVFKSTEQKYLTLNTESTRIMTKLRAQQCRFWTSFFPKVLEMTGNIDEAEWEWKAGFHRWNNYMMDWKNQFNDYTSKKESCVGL
Assay: Reversible inhibition of BChE, Ellman method, enzyme-inhibitor dissociation constants
Format: biochemical
Conditions: ± standard error; ATCh substrate, 25 °C, pH 7.4
Protocol: As a source of BChE, a purified human BChE, and as AChE, a recombinant human AChE was used, both enzymes kindly provided by Dr. F. Nachon (Département de Toxicologie, Armed Forces Biomedical Research Institute, France). […] Enzyme activities were measured spectrophotometrically by the Ellman method at […] using 0.30 mM DTNB as thiol reagent, ATCh as substrate and water in 0.1 M phosphate buffer, pH 7.4. […] Measurements were done at 25 °C on a Tecan Infinite M200Pro plate reader (Austria). […]
Please use yes (1) for Ki under 2000 nM and no (0) for everything else, ties included.

Just wondering, is Ki of C=CC1C[N+]2(Cc3ccc(F)c(F)c3)CCC1C[C@H]2[C@H](O)c1ccnc2ccccc12 (stereo partly shown) below 2000 nM?
yes (1)

Does the reported Ki of CCC1C[N+]2(Cc3cccc(F)c3)CCC1C[C@H]2[C@H](O)c1ccnc2ccccc12 (stereo partly shown) stay below 2000 nM?
yes (1)

Hi there! Is Ki for C=CC1C[N+]2(Cc3ccc(F)c(F)c3)CCC1C[C@@H]2[C@@H](O)c1ccnc2ccccc12 (stereo partly shown) below 2000 nM, do you know?
no (0)

I wonder whether CCC1C[N+]2(Cc3ccc(F)cc3)CCC1C[C@@H]2[C@@H](O)c1ccnc2ccccc12 (stereo partly shown) has Ki below 2000 nM. Can you tell?
yes (1)

Determine whether this compound shows Ki lower than 2000 nM (ties excluded): CCC1C[N+]2(Cc3ccc(F)cc3)CCC1C[C@H]2[C@H](O)c1ccnc2ccccc12 (stereo partly shown)
no (0)

Confirm or reject: Ki of CCC1C[N+]2(Cc3cccc(OC(F)(F)F)c3)CCC1C[C@@H]2[C@@H](O)c1ccnc2ccccc12 (stereo partly shown) lies strictly below 2000 nM
yes (1)

Check if Ki falls below 2000 nM for C=CC1C[N+]2(Cc3cccc(C(F)(F)F)c3)CCC1C[C@@H]2[C@@H](O)c1ccnc2ccccc12 (stereo partly shown) .
no (0)

Confirm or reject: Ki of CCC1C[N+]2(Cc3ccccc3)CCC1C[C@H]2[C@H](O)c1ccnc2ccccc12 (stereo partly shown) lies strictly below 2000 nM
yes (1)

Quick check: does C=CC1C[N+]2(Cc3cccc(F)c3)CCC1C[C@@H]2[C@@H](O)c1ccnc2ccccc12 (stereo partly shown) have Ki under 2000 nM?
no (0)

Field: below-cutoff. Rule: recorded Ki strictly less than 2000 nM. Subject: C=CC1C[N+]2(Cc3cc(F)cc(F)c3)CCC1C[C@H]2[C@H](O)c1ccnc2ccccc12 (stereo partly shown)
yes (1)

Does this compound meet the criterion Ki < 2000 nM? CCC1CN2CCC1CC2C(O)c1ccnc2ccccc12 (stereo not shown) [DHCD, 10,11-dihydrocinchonidine]
no (0)

Record C=CC1C[N+]2(Cc3ccc(C(F)(F)F)cc3)CCC1C[C@@H]2[C@@H](O)c1ccnc2ccccc12 (stereo partly shown) : is its Ki strictly below 2000 nM?
no (0)

Input C=CC1C[N+]2(Cc3c(F)cccc3C(F)(F)F)CCC1C[C@H]2[C@H](O)c1ccnc2ccccc12 (stereo partly shown) ; condition: Ki strictly below 2000 nM. Does it hold?
no (0)

Bench note: check whether CCC1C[N+]2(Cc3ccccc3)CCC1C[C@@H]2[C@@H](O)c1ccnc2ccccc12 (stereo partly shown) shows Ki below 2000 nM
yes (1)

Find out if reported Ki for C=CC1C[N+]2(Cc3ccc(F)cc3F)CCC1C[C@H]2[C@H](O)c1ccnc2ccccc12 (stereo partly shown) is less than 2000 nM
no (0)

Please state whether Ki is below 2000 nM for CCC1C[N+]2(Cc3cccc(F)c3)CCC1C[C@@H]2[C@@H](O)c1ccnc2ccccc12 (stereo partly shown)
yes (1)
